Measured values drawn from patent US20260098072A1 for this set.

STUDY_SYSTEM: human melanocortin 3 receptor (MC3R) (human, UniProt P41968 1-323)
Sequence (P41968 whole entry): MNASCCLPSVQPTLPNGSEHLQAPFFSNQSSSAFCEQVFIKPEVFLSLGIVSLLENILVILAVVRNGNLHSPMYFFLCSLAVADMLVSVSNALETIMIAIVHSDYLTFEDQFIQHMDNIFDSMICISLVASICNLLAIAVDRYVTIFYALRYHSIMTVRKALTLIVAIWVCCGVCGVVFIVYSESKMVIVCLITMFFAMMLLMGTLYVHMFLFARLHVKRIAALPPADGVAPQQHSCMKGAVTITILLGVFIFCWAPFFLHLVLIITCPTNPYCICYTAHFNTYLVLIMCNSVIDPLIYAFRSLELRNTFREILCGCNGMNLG
EXPERIMENT_NOTES: cell-based or functional assay
Positions of bridges follow the written chain, without caps; N, C: chain ends. Non-standard residues stand in square brackets, D forms with d. d2Nal = N[C@H](Cc1ccc2ccccc2c1)C(=O)O; Hyp = O=C(O)[C@@H]1C[C@@H](O)CN1; Nle = CCCC[C@H](N)C(=O)O
Attribute: Max Activation %
// units = %; emit number, no label

See these solved cases before continuing.
1. Ac-[Nle]DPWRWK[dV][dP]-NH2 (lactam 2-7; SMILES CCCC[C@H](NC(C)=O)C(=O)N[C@H]1CC(=O)NCCCC[C@@H](C(=O)N[C@@H](C(=O)N2CCC[C@@H]2C(N)=O)C(C)C)NC(=O)[C@H](Cc2c[nH]c3ccccc23)NC(=O)[C@H](CCCNC(=N)N)NC(=O)[C@H](Cc2c[nH]c3ccccc23)NC(=O)[C@@H]2CCCN2C1=O) [C1] | 4.55
2. Ac-[Nle]DPFFRWK[dV][dP]-NH2 (lactam 2-8; SMILES CCCC[C@H](NC(C)=O)C(=O)N[C@H]1CC(=O)NCCCC[C@@H](C(=O)N[C@@H](C(=O)N2CCC[C@@H]2C(N)=O)C(C)C)NC(=O)[C@H](Cc2c[nH]c3ccccc23)NC(=O)[C@H](CCCNC(=N)N)NC(=O)[C@H](Cc2ccccc2)NC(=O)[C@H](Cc2ccccc2)NC(=O)[C@@H]2CCCN2C1=O) [B1] | 6.86
3. VPWRWVP [C6] | -0.8

Could you tell me which Max Activation % is on file for LPWRWVP [C4] ?
-0.32

Requested field: Max Activation %. Item: LDPWRWKVP [C7]
0.16

What does the record list as Max Activation % for Ac-[Nle]DP[d2Nal]RWK[dV][dP]-NH2 (SMILES CCCC[C@H](NC(C)=O)C(=O)N[C@@H](CC(=O)O)C(=O)N1CCC[C@H]1C(=O)N[C@H](Cc1ccc2ccccc2c1)C(=O)N[C@@H](CCCNC(=N)N)C(=O)N[C@@H](Cc1c[nH]c2ccccc12)C(=O)N[C@@H](CCCCN)C(=O)N[C@@H](C(=O)N1CCC[C@@H]1C(N)=O)C(C)C) [A1] ?
84.4

Which Max Activation % is reported for this binder? IPWRWVP [C5]
-0.49

Form field: reported Max Activation % of Ac-[Nle]D[Hyp][d2Nal]RWPK[dV][dP]-NH2 (lactam 2-8; SMILES CCCC[C@H](NC(C)=O)C(=O)N[C@H]1CC(=O)NCCCC[C@@H](C(=O)N[C@@H](C(=O)N2CCC[C@@H]2C(N)=O)C(C)C)NC(=O)[C@@H]2CCCN2C(=O)[C@H](Cc2c[nH]c3ccccc23)NC(=O)[C@H](CCCNC(=N)N)NC(=O)[C@@H](Cc2ccc3ccccc3c2)NC(=O)[C@@H]2C[C@@H](O)CN2C1=O) [D4]
50.1
